# tested system: SARS-CoV-2 spike protein bearing furin mutation and truncation in retention sequence, on pseudoviral particles (SARS-CoV-2, UniProt P0DTC2 14-1255)
# protocol text: cell-based or functional assay
Consider the following binders and their measured PV neutralization % (Ab 1 ug/mL) readings.
Give your result in % as a bare value.

YANG-1111 (antibody, V domains shown) VH: EVQLVESGGGLIQPGGSLRLSCAASGFTFSSYSINWVRQAPGKGLEWVSFISGSSTTIYYADSVKGRFTISRDSAKNSLYLQMNSLRDEDTAVYYCARGLRSSIAPRPDYFDSWGQGILVTVSS VL: SYVLTQPPSVSVAPGKTARITCGGNNIGSKGVHWYQQKPGQAPVLVIYYDSDRPSGIPERFSGSNSGNTATLTISRVEAGDEADYSCQVWDSSSDHPVFGGGTKLTVQ
72.7

// below: PV neutralization % (Ab 1 ug/mL) requested for another binder
[in] Form field: reported PV neutralization % (Ab 1 ug/mL) of YANG-1108 (antibody, V domains shown) VH: QVQLVESGGGVVHPGRSLRLSCVVSGFTFSGYGMYWVRQAPGKGLEWVAVISKDGSDKYYADSVKGRFTISRDNSKNTLNLQMNSLRAEDTAVFYCAKERTFQGSGSYYNNYFYYGMDVWGQGTTVTVSS VL: AIQLTQSPSSLSASVGDRVTITCRASQGISSALAWYQQKPGKAPNLLIYDASSLESGVPSRFSGSGFGTDFTLTINSLQPEDFASYYCQQFKSYPLTFGGGTKVEIK
[out] 95.2
